Please respond with reported protein stability index for every item in the list.
B1: ZER1 (parent)
chain: KEMARKVIEHCSNFKEENMDTSR

- Variants of: B1
- test_summary: protein stability index of a GFP-peptide fusion (GPS, HEK-293T) (PSI 1-6); higher = more stable;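 note: lentivirally expressed fusions sorted by FACS into six bins by GFP to DsRed ratio, PSI derived from sequencing read proportions per bin multiplied by bin number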
- settings: c terminus: native
Give bare numbers.

Example results:
E2V :: 3.52
M3K :: 4.36

Answer for every listed entry: what is its protein stability index? The entries follow.
1. I8N
2. N13R
3. E9L
4. N18S
5. V7S

Output:
[4.98, 3.11, 2.64, 3.7, 4.98]
